# EXPERIMENT SUMMARY: cells
# CONDITIONS: Mus musculus, B16-4A5, 68 h, read-out: INH
# Description: Inhibition of theophylline-stimulated mouse B16-4A5 cell proliferation assessed as cell viability at 100 uM after 68 hrs by WST8 assay
RESULT TYPE: inhibition at 100 µM (%)
All answers are understood in %, so give the number only.

For orientation, consider the following solved cases.
OC[C@H]1O[C@@H](Oc2ccc(O)cc2)[C@H](O)[C@@H](O)[C@@H]1O
21.9
O=C1c2c(O)cc(O)cc2O[C@H](c2ccc(O)cc2)[C@H]1O [DIHYDROKAEMPFEROL]
30.5

Prompt: Given the entry O=c1c(O)c(-c2ccc(O)cc2)oc2cc(O)cc(O)c12 , report its measured inhibition at 100 µM.
Completion: 56

Prompt: Same lookup for O=c1c(O)c(-c2ccccc2)oc2cc(O)cc(O)c12 , please.
Completion: 53.3

Prompt: Same thing, different compound: COc1ccc(-c2oc3cc(O)cc(O)c3c(=O)c2O)cc1 [KAEMPFERIDE]
Completion: 11.2

Prompt: Check O=C(CCc1ccccc1)C[C@H](O)CCc1ccccc1 too.
Completion: -7.6

Prompt: Same for COc1cc(CC/C=C/C(=O)CCc2ccccc2)ccc1O
Completion: 90.6

Prompt: O=C(O)CCc1ccccc1 ?
Completion: 2.9

Prompt: Subsequent entry: O[C@H](CCc1ccccc1)C[C@H](O)CCc1ccccc1
Completion: 90.2

Prompt: Now try COc1cc(CC[C@@H](O)CC(=O)CCc2ccccc2)ccc1O .
Completion: 20.8

Prompt: Now the same for COc1cc(CCC(C)=O)ccc1O
Completion: -6.1

Prompt: // query: O=C1c2c(O)cc(O)cc2O[C@H](c2ccccc2)[C@H]1O
Completion: 6.9

----------
Below, each of the compounds is paired with its reported inhibition at 100 µM value.
# EXPERIMENT SUMMARY: cells
# CONDITIONS: Mus musculus, B16-4A5, 72 h, read-out: INH
# Description: Inhibition of melanogenesis in theophylline-stimulated mouse B16-4A5 cells at 100 uM after 72 hrs
Write the value in % as a bare number.

Solved entries (count: 2):
COc1cc(CCC(C)=O)ccc1O [ZINGERONE]
15.5
O=C(CCc1ccccc1)C[C@H](O)CCc1ccccc1
67.8

Would you kindly look at the next entry?
Prompt: Given the entry O=C1c2c(O)cc(O)cc2O[C@H](c2ccccc2)[C@H]1O [PINOBAKSIN] , report its measured inhibition at 100 µM.
Completion: 47.7

----------
# Tested on: B16
# EXPERIMENT SUMMARY: cells
# CONDITIONS: Mus musculus, B16, 72 h
# Description: Inhibition of melanogenesis in theophylline-stimulated mouse B16-4A5 cells after 72 hrs
Catalogue of IC50 values
Kindly answer with a numeric value in µM, unit omitted.

O[C@H](CCc1ccccc1)C[C@H](O)CCc1ccccc1
33

Now let's try a different one.
Prompt: Look up IC50 for this compound: COc1cc(CC/C=C/C(=O)CCc2ccccc2)ccc1O
Completion: 10

----------
# EXPERIMENT SUMMARY: cells
# CONDITIONS: Mus musculus, B16-4A5, 68 h, read-out: INH
# Description: Inhibition of theophylline-stimulated mouse B16-4A5 cell proliferation assessed as cell viability at 30 uM after 68 hrs by WST8 assay
RESULT TYPE: inhibition at 30 µM (%)
Report as a plain number; the unit % is understood.

Worked examples follow.
O=c1c(O)c(-c2ccccc2)oc2cc(O)cc(O)c12
12.7
O=C1c2c(O)cc(O)cc2O[C@H](c2ccccc2)[C@H]1O
7.1

Prompt: Name the reported inhibition at 30 µM value associated with the molecule O=C(CCc1ccccc1)C[C@H](O)CCc1ccccc1
Completion: -7.6

Prompt: Would you kindly repeat that for COc1ccc(-c2oc3cc(O)cc(O)c3c(=O)c2O)cc1 [KAEMPFERIDE] ?
Completion: 7.4

Prompt: What about this molecule? COc1cc(CC/C=C/C(=O)CCc2ccccc2)ccc1O
Completion: 2.6

Prompt: Would you mind doing OC[C@H]1O[C@@H](Oc2ccc(O)cc2)[C@H](O)[C@@H](O)[C@@H]1O as well?
Completion: 17.6

Prompt: Same again, this time with O=C(O)CCc1ccccc1
Completion: 1.3

Prompt: Also COc1cc(CCC(C)=O)ccc1O , if possible.
Completion: -8.8

Prompt: Also O[C@H](CCc1ccccc1)C[C@H](O)CCc1ccccc1 , if possible.
Completion: -2.3

Prompt: One more molecule: O=C1c2c(O)cc(O)cc2O[C@H](c2ccc(O)cc2)[C@H]1O [DIHYDROKAEMPFEROL]
Completion: 23.9

Prompt: What would you report for O=c1c(O)c(-c2ccc(O)cc2)oc2cc(O)cc(O)c12 ?
Completion: 26.1

Prompt: Follow-up entry: COc1cc(CC[C@@H](O)CC(=O)CCc2ccccc2)ccc1O
Completion: 15.1

----------
# EXPERIMENT SUMMARY: cells
# CONDITIONS: Mus musculus, B16-4A5, 68 h, read-out: INH
# Description: Inhibition of theophylline-stimulated mouse B16-4A5 cell proliferation assessed as cell viability at 3 uM after 68 hrs by WST8 assay
RESULT TYPE: inhibition at 3 µM (%)
Just the number please, in %, no unit attached.

O=C1c2c(O)cc(O)cc2O[C@H](c2ccccc2)[C@H]1O
3.6

Prompt: inhibition at 3 µM lookup needed for O=c1c(O)c(-c2ccccc2)oc2cc(O)cc(O)c12 , thanks.
Completion: 7.1

Prompt: Another compound to check: COc1ccc(-c2oc3cc(O)cc(O)c3c(=O)c2O)cc1 [KAEMPFERIDE]
Completion: 3.1

Prompt: Follow-up entry: O=C(O)CCc1ccccc1
Completion: -2.8

Prompt: // next record O=C1c2c(O)cc(O)cc2O[C@H](c2ccc(O)cc2)[C@H]1O [DIHYDROKAEMPFEROL]
Completion: 5.9

----------
# EXPERIMENT SUMMARY: cells
# CONDITIONS: Mus musculus, B16-4A5, 72 h, read-out: INH
Everything with inhibition at 100 µM lower than 60% is N; everything else, including exactly 60%, is Y.

The following compounds have reported results that may help.
O=C(O)CCc1ccccc1
N
COc1cc(CC[C@@H](O)CC(=O)CCc2ccccc2)ccc1O
Y
OC[C@H]1O[C@@H](Oc2ccc(O)cc2)[C@H](O)[C@@H](O)[C@@H]1O
N

Prompt: Determine whether this compound has inhibition at 100 µM no lower than 60%: COc1ccc(-c2oc3cc(O)cc(O)c3c(=O)c2O)cc1 [KAEMPFERIDE]
Completion: Y

Prompt: Record: O=C1c2c(O)cc(O)cc2O[C@H](c2ccc(O)cc2)[C@H]1O [DIHYDROKAEMPFEROL]
Completion: N

----------
# MEASURED TARGET: Tyrosinase (Agaricus bisporus)
# Sequence (whole entry): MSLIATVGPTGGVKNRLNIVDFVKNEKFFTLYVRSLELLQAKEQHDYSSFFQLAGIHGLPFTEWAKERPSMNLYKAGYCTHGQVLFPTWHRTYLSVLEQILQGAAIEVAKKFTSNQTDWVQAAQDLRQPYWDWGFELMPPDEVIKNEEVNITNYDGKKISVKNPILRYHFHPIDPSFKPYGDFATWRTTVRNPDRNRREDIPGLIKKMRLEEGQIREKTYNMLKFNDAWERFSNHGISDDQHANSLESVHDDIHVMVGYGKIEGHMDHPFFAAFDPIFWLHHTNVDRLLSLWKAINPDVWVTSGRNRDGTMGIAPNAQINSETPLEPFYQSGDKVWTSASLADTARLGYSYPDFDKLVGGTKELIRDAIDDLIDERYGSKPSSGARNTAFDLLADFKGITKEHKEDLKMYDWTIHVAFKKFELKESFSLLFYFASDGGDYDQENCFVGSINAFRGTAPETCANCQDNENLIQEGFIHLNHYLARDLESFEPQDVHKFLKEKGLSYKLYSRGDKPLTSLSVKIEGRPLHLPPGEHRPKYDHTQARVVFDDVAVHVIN
# EXPERIMENT SUMMARY: Inhibition of mushroom tyrosinase at 3 uM
RESULT TYPE: inhibition (%)
Value expressed in %; do not type the unit.

These solved cases illustrate the format of a correct answer.
O[C@H](CCc1ccccc1)C[C@H](O)CCc1ccccc1
4.6
COc1cc(CC[C@@H](O)CC(=O)CCc2ccccc2)ccc1O
4.7
COc1ccc(-c2oc3cc(O)cc(O)c3c(=O)c2O)cc1 [KAEMPFERIDE]
-0.2
COc1cc(CCC(C)=O)ccc1O [ZINGERONE]
2.1
O=c1c(O)c(-c2ccc(O)cc2)oc2cc(O)cc(O)c12 [KAEMPFEROL]
7.6

Prompt: Bench note: what inhibition did O=C1c2c(O)cc(O)cc2O[C@H](c2ccc(O)cc2)[C@H]1O [DIHYDROKAEMPFEROL] show?
Completion: 4.4

Prompt: Try the molecule O=C(CCc1ccccc1)C[C@H](O)CCc1ccccc1
Completion: 2.5

Prompt: Query O=C(O)CCc1ccccc1 [PHENYL PROPIONIC ACID] next
Completion: 5.3

Prompt: Field entry: O=C1c2c(O)cc(O)cc2O[C@H](c2ccccc2)[C@H]1O [PINOBAKSIN]
Completion: 2.8

Prompt: Now this one: COc1cc(CC/C=C/C(=O)CCc2ccccc2)ccc1O
Completion: 3

Prompt: Now give it for O=c1c(O)c(-c2ccccc2)oc2cc(O)cc(O)c12 [GALANGIN] too.
Completion: 26.6
